target: h-GABA-A α5β3γ2 (Homo sapiens (Human), UniProt P18507+P31644); experiment: Two-electrode voltage clamp electrophysiology in Xenopus oocytes expressing GABAA receptors, modulation of GABA EC20 current; assay type: cell-based; conditions: % modulation of GABA EC20 = 100*(Fold increase−1), Xenopus oocytes
Sequence (P31644 32-462): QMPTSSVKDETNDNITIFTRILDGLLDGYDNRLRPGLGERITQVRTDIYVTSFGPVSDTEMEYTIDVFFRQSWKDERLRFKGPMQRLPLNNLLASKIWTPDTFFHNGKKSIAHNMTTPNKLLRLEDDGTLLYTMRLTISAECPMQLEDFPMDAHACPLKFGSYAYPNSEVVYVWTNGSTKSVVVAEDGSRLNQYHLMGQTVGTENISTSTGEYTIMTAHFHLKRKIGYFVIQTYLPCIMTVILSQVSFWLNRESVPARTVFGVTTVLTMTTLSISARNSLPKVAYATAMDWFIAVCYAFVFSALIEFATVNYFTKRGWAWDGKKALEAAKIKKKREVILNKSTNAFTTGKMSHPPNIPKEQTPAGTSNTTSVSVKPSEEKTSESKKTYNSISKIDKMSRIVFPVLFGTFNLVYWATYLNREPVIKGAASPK
Sequence (P28472 26-473 partner): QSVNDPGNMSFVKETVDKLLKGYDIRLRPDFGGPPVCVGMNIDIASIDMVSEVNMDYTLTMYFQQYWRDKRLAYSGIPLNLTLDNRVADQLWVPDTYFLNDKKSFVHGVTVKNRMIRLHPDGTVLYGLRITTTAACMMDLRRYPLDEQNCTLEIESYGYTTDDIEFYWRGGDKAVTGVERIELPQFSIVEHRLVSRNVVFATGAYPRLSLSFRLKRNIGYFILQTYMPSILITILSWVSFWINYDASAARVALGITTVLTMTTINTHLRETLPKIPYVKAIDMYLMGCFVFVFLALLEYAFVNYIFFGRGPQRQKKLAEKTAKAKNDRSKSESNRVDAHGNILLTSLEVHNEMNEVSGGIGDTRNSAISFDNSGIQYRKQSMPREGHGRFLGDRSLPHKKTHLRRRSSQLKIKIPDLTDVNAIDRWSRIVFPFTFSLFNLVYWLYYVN
Sequence (P18507 40-475): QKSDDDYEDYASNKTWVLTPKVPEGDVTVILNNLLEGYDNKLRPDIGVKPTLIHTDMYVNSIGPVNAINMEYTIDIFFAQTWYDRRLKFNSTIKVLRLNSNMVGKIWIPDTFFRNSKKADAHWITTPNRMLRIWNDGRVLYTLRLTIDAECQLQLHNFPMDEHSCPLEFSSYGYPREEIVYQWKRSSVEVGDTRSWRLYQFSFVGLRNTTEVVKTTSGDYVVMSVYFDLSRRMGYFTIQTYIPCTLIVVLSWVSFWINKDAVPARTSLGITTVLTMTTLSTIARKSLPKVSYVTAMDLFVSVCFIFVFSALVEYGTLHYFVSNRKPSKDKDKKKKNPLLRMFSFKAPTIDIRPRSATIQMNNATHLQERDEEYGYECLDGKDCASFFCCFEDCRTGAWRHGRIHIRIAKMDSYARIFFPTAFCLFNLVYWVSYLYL
Endpoint: Efficacy (GABA) % (%)

chemical_smiles=Cc1ccc(-c2noc(C)c2COc2ccc(C(=O)N3CC4(C3)CS(=O)(=O)C4)nn2)cn1 measured_on="h-GABA-A α5β3γ2 (Homo sapiens (Human), UniProt P18507+P31644)" endpoint="Efficacy (GABA) %" value_units=% observed_measurement=43
chemical_smiles=Cc1ccc(-c2noc(C)c2COc2ccc(C(=O)NC3CC4(COC4)C3)nn2)cn1 measured_on="h-GABA-A α5β3γ2 (Homo sapiens (Human), UniProt P18507+P31644)" endpoint="Efficacy (GABA) %" value_units=% observed_measurement=70
chemical_smiles=Cc1ccc(-c2noc(C)c2COc2ccc(C(=O)N[C@H]3CC[C@H](O)CC3)nn2)cn1 measured_on="h-GABA-A α5β3γ2 (Homo sapiens (Human), UniProt P18507+P31644)" endpoint="Efficacy (GABA) %" value_units=% observed_measurement=84
chemical_smiles=CCC[C@H](CO)NC(=O)c1ccc(OCc2c(-c3ccc(C)nc3)noc2C)nc1 measured_on="h-GABA-A α5β3γ2 (Homo sapiens (Human), UniProt P18507+P31644)" endpoint="Efficacy (GABA) %" value_units=% observed_measurement=47
chemical_smiles=Cc1ccc(-c2noc(C)c2COc2cc3c(cn2)C(=O)N(C)C3)cn1 measured_on="h-GABA-A α5β3γ2 (Homo sapiens (Human), UniProt P18507+P31644)" endpoint="Efficacy (GABA) %" value_units=% observed_measurement=80

====

target: h-GABA-A α5β3γ2 (Homo sapiens (Human), UniProt P18507+P31644); assay: Two-electrode voltage clamp electrophysiology in Xenopus oocytes expressing GABAA receptors, modulation of GABA EC20 current; assay type: cell-based; conditions: % modulation of GABA EC20 = 100*(Fold increase−1), Xenopus oocytes
Recorded Efficacy (GABA) % values for a group of compounds are listed next.
Endpoint: Efficacy (GABA) % (%)

compound=Cc1ccc(-c2noc(C(F)F)c2COc2ccc(C(=O)NC3CCOCC3)cn2)cn1 value_units=% observed_measurement=49
compound=Cc1ccc(-c2noc(C)c2COc2ccc(C(=O)NC3(C)CCS(=O)(=O)CC3)nn2)cn1 value_units=% observed_measurement=89
compound="Cc1ccc(-c2noc(C)c2COc2ccc(C(=O)N[C@@H]3CC[C@@](O)(C(F)(F)F)C3)nn2)cn1 (single isomer, unassigned)" value_units=% observed_measurement=37
compound=Cc1ccc(-c2noc(C)c2COc2ccc(C(=O)N[C@H]3C[C@H](OC(F)F)C3)nn2)cn1 value_units=% observed_measurement=55
compound=Cc1ccc(-c2noc(C)c2COc2ccc(C(=O)NC3(C)CCCC3)nn2)cn1 value_units=% observed_measurement=74
compound=Cc1ccc(-c2noc(C)c2COc2ccc(C(=O)NC(C)C)nn2)cn1 value_units=% observed_measurement=84
compound=Cc1ccc(-c2noc(C)c2COc2cnc(C(=O)NCCO)cn2)cn1 value_units=% observed_measurement=37
compound=Cc1ccc(-c2noc(C)c2COc2ccc(C(=O)N3C4COCC3C4)nn2)cn1 value_units=% observed_measurement=76
compound=Cc1ccc(-c2noc(C)c2COc2ccc(C(=O)N[C@H]3CC[C@](C)(O)CC3)nn2)cn1 value_units=% observed_measurement=78
compound=Cc1ccc(-c2noc(C)c2COc2ccc(C(=O)N3CC(F)(F)C3)nn2)cn1 value_units=% observed_measurement=68
compound=Cc1ccc(-c2noc(C)c2COc2cc3c(cn2)C(=O)N(CCO)C3)cn1 value_units=% observed_measurement=74
